- ASSAY TARGET: HLA-A*03:01 (human)
- ASSAY COMMENT: UV peptide exchange + HLA class I ELISA
- MEASUREMENT CONDITIONS: remark: other sources report otherwise
Below: a set of entries, each annotated with reported exchange rate vs Pos peptide.
# answer = value followed by unit

Worked examples, 7 binders total:
YLRRQKRLK (here or on the partner: biotinylated heavy chain) [P60 9-mer peptide (FOXA1.p.F266L)]
36.6%
RAVRRMNTF (here or on the partner: biotinylated heavy chain) [P17 9-mer peptide (MSMB-NOCA4 fusion)]
3.8%
LMAQRLLLR (here or on the partner: biotinylated heavy chain) [P97 9-mer peptide (FOXRED2-TXN2 fusion)]
39%
IPVLTRWPL (here or on the partner: biotinylated heavy chain) [P19 9-mer peptide (TMEM222-LOC644961 fusion)]
4.1%
HVPKILSGK (here or on the partner: biotinylated heavy chain) [P58 9-mer peptide (AR (Q903H))]
32.5%
FLFLLLPLS (here or on the partner: biotinylated heavy chain) [P87 9-mer peptide (AR-Intron splice variant)]
2.4%
YCMAAPMGL (here or on the partner: biotinylated heavy chain) [P76 9-mer peptide (AR-V3 splice variant)]
6%

Consider now this further binder.
[ask] Dear colleague, please send me the reported exchange rate vs Pos peptide for YQFTFDLLI (here or on the partner: biotinylated heavy chain) [P48 9-mer peptide (AR.p.H875Y)] when you can.
[reply] 4.4%
